B1: library; a variant is named by its letters at N, in order (parent)
chain: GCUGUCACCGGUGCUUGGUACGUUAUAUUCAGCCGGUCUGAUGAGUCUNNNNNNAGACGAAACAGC

# Variants of: B1
# assay.notes: normalized RNA/DNA level with ligand (relative to sTRSVctl = 100) (log10 (% of sTRSVctl)); HEK293T overexpressing SLC46A1; ligand concentration (+) RNA-Seq: 6 mM; higher = less ribozyme self-cleavage, higher mRNA level
# experimental.setup: with (6R,S)-folinic acid; ligand present: yes
assay.readout: normalized RNA/DNA level with ligand (log10)
Form: value (number only, do not type unit).

Would you please look over these solved cases?
> print(dat)
                             entry.sequence  observed.result
1  GCUGUCACCGGUGCUUGGUACGUUAUAUUCAGCCGGUCUGAUGAGUCUUAGCGGAGACGAAACAGC [UAGCGG]             1.96
2  GCUGUCACCGGUGCUUGGUACGUUAUAUUCAGCCGGUCUGAUGAGUCUGUAGGGAGACGAAACAGC [GUAGGG]             1.99
3  GCUGUCACCGGUGCUUGGUACGUUAUAUUCAGCCGGUCUGAUGAGUCUGCGCCCAGACGAAACAGC [GCGCCC]             2.04
4  GCUGUCACCGGUGCUUGGUACGUUAUAUUCAGCCGGUCUGAUGAGUCUCGCGAUAGACGAAACAGC [CGCGAU]             1.97

Query: Can you share its normalized RNA/DNA level with ligand (log10)? I mean this variant: GCUGUCACCGGUGCUUGGUACGUUAUAUUCAGCCGGUCUGAUGAGUCUGGUGUCAGACGAAACAGC [GGUGUC]
Result: 2.01

Query: // normalized RNA/DNA level with ligand (log10) lookup, key: GCUGUCACCGGUGCUUGGUACGUUAUAUUCAGCCGGUCUGAUGAGUCUCCUACUAGACGAAACAGC [CCUACU]
Result: 2.04
